Target: Insulin
Sequence (P01308 25-54, chain 1 of 2): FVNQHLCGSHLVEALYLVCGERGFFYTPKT
Sequence (P01308 90-110, chain 2 of 2): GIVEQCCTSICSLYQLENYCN
Assay: polyreactivity ELISA on insulin coat, 100 nM
Some binders, each annotated with its measured Insulin polyreactivity score.

# binder, measurement.kind, result
measured = [
    ("MIAB160 (antibody, V domains shown) VH: EVQLLESGGGLVQPGGSLRLSCAASGFTFSDFWMHWVRQAPGKGLEWISYISGDSGYTQYADSVKGRFTISRDNSKNTLYLQMNSLRAEDTAVYYCARDRPYYYYMDVWGKGTTVTVSS VL: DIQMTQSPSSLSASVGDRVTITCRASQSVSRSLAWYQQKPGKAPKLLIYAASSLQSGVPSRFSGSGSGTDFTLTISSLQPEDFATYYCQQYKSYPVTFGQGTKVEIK", "Insulin polyreactivity score", 17.8),
]

So what does the record say about Insulin polyreactivity score for MIAB154 (antibody, V domains shown) VH: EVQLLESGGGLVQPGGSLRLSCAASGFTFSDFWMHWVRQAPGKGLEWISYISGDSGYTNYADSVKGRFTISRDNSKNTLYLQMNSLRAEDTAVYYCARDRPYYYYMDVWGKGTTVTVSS VL: DIQMTQSPSSLSASVGDRVTITCRASQSVSRYLNWYQQKPGKAPKLLIYAASSLQSGVPSRFSGSGSGTDFTLTISSLQPEDFATYYCQQYKSYPVTFGQGTKVEIK ?
61.9

Same read-out for MIAB131 (antibody, V domains shown) VH: EVQLLESGGGLVQPGGSLRLSCAASGFTFSDFWMHWVRQAPGKGLEWISYISGDSGYTNYADSVKGRFTISRDNSKNTLYLQMNSLRAEDTAVYYCARDRPYYYGMDVWGKGTTVTVSS VL: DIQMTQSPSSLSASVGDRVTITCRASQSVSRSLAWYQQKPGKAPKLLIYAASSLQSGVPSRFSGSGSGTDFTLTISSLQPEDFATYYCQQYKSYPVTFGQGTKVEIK ?
8
